- Test system: MST2
- Construct: gene STK3
- condition_description: concentration: 1 μM, replicates: in singlicate; n = 1;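 further: KINOMEscan kinase panel screen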
Quick reference: %Inh of the listed items.
Please answer in the form of a number followed by its unit of measurement.

Cc1cccc(-c2nc(Nc3ccc4[nH]nnc4c3)c3ccccc3n2)n1: 0%
Cl.Cl.c1ccc(-c2cc3ccncc3cc2OC2CCNCC2)cc1: 6%

Continue with the compound presented below.
So for "CNc1nccc(-c2c(-c3ccc(F)cc3)ncn2C2CCN(C)CC2)n1" , the logged %Inh turned out to be 0%

====

- Tested on: PLK4
- condition_description: concentration: 1 μM, replicates: in singlicate; n = 1
Lab note: cut-off is 10%. Strictly less in %Inh is TRUE. Exactly 10% or more is FALSE.

Nc1nc(-c2ccccn2)c(-c2ccnc3ccccc23)s1 [GW548057]: FALSE
Nc1nc(-c2ccc3c(N)n[nH]c3c2)cc(N2CCC[C@@H](C(=O)Nc3ccccc3)C2)n1.O=C(O)C(F)(F)F.O=C(O)C(F)(F)F [GSK2288359]: FALSE
c1ccc(-c2ccc3c(-c4ccnc(Nc5ccc6c(c5)OCCO6)n4)cnn3n2)cc1 [GW818941]: TRUE
CCc1nc(-c2cccc(C)c2)c(-c2ccnc(NC(=O)c3ccccc3)c2)s1: FALSE
Cl.O=S(=O)(c1cccc(F)c1)c1ccc(Nc2ncnc3cc(Br)sc23)cc1Cl [GSK306886]: FALSE
CC(C)N1CCC(n2cnc(-c3ccc(F)cc3)c2-c2ccnc(N)n2)CC1 [SB-223132]: TRUE

**Q:** Would you kindly verify if %Inh of Clc1ccc(-c2cc(-c3c[nH]nc3-c3ccccn3)ccn2)cc1 [GW681251] is strictly less than 10%?
**A:** TRUE

**Q:** Would you kindly verify if %Inh of O=C(Nc1ccccc1F)NC1CCN(c2ccnc(Nc3ccc(F)cc3)n2)C1 (stereo not shown) [GSK1379722] is strictly less than 10%?
**A:** TRUE

**Q:** Would you kindly verify if %Inh of Cl.c1ccc(Cn2ncc3cc(Nc4ncnc5ccccc45)ccc32)cc1 [GW273749] is strictly less than 10%?
**A:** TRUE

**Q:** Would you kindly verify if %Inh of CSc1nn2c(=O)cc(N3CCOCC3)nc2n1Cc1cccc(Cl)c1Cl [GSK2347225] is strictly less than 10%?
**A:** FALSE

**Q:** Would you kindly verify if %Inh of COc1cc2c(Nc3cccc(NC(=O)c4ccccc4)c3)ncnc2cc1OCCCN1CCOCC1 [GSK223810] is strictly less than 10%?
**A:** FALSE

====

Quick reference: %Inh of the listed items.
- System: CAMKK1
- condition_description: concentration: 1 μM, replicates: in singlicate; n = 1
Just the number in %, nothing appended.

Nc1n[nH]c2nnc(-c3ccccc3)cc12 [SB-517389]: 0
CC(C)(C)OC(=O)NC1CCCN(c2cc(-c3ccc4c(N)n[nH]c4c3)nc(N)n2)C1 (centres unmarked) [GSK2286096]: 0
Clc1cccc(-c2nc(Nc3ccncc3)c3ccccc3n2)c1 [GW873004]: 11

So for COc1ccc(Nc2nccc(N3CCC(NC(=O)c4cccc(NC(C)=O)c4)C3)n2)cc1 (centres unmarked) [GSK1379732] , the logged %Inh turned out to be 0

So for "COC(=O)c1c(-c2ccccc2)c2cc(Cl)ccc2c(=O)n1Cc1ccc(S(C)(=O)=O)cc1" , the logged %Inh turned out to be 0

So for "Fc1ccc(-c2ncn(CCCNCc3ccccc3)c2-c2ccncc2)cc1" , the logged %Inh turned out to be 0

So for C[C@H]1CC[C@@H](C(=O)Nc2ccccc2)CN1c1cc(-c2ccc3c(N)n[nH]c3c2)nc(N)n1 [GSK2283293] , the logged %Inh turned out to be 7

So for Cl.c1ccc(Cn2ncc3cc(Nc4ncnc5ccccc45)ccc32)cc1 [GW273749] , the logged %Inh turned out to be 3

So for CCc1nc(-c2cccc(N(C)S(=O)(=O)c3ccccc3)c2)c(-c2ccnc(Nc3ccc(N4CCN(C(C)=O)CC4)nc3)n2)s1 [GSK1645895] , the logged %Inh turned out to be 30

So for NC(=O)c1sc(-n2cnc3ccccc32)cc1OCc1ccccc1F [GSK1024306] , the logged %Inh turned out to be 0

So for O=c1cc(N2CCOCC2)nc2n(Cc3cccc(Cl)c3)ccn12 [GSK2296823] , the logged %Inh turned out to be 17

So for Nc1nc(-c2cccnc2)c(-c2ccnc3ccccc23)s1 [GW684083] , the logged %Inh turned out to be 0

So for CC(=O)Nc1n[nH]c2ncc(-c3ccccc3)cc12 [SB-548492] , the logged %Inh turned out to be 0

So for CCCc1ccc(S(=O)(=O)NC2CCN(c3ccnc(Nc4ccc(OC)cc4)n3)C2)cc1 (centres unmarked) [GSK1379737] , the logged %Inh turned out to be 0

====

- Test system: CDKL5
- condition_description: concentration: 1 μM, replicates: in singlicate; n = 1
Quick reference: %Inh of the listed items.
Just the number in %, nothing appended.

As a guide, the following entries are already answered.
Fc1cccc(COc2ccc(Nc3ncnc4cc[nH]c34)cc2Cl)c1: 15
CCc1nc(-c2cccc(C)c2)c(-c2ccnc(NC(=O)c3ccccc3)c2)s1: 10

So for "C[C@@H]1CCN(C(=O)CO)C[C@@H]1N(C)c1ncnc2[nH]ccc12" , the logged %Inh turned out to be 0

So for Cl.c1ccc(Cn2ccc3cc(Nc4ncnc5ccccc45)ccc32)cc1 [GW275568] , the logged %Inh turned out to be 0

So for COc1ccc(-c2oc3ncnc(N)c3c2-c2ccc(OC)cc2)cc1 [SB-589132] , the logged %Inh turned out to be 2

====

- Test system: MRCKB
- Construct: gene CDC42BPB
- condition_description: concentration: 1 μM, replicates: in singlicate; n = 1
Quick reference: %Inh of the listed items.
Just the number in %, nothing appended.

As a guide, the following entries are already answered.
Nc1nc(-c2ccccn2)c(-c2ccnc3ccccc23)s1: 0
CCc1nc(-c2cccc(C)c2)c(-c2ccnc(NC(=O)c3ccccc3)c2)s1: 0

Continue with the molecule presented below.
So for "Fc1cccc(COc2ccc(Nc3ncnc4nn5ccccc5c34)cc2Cl)c1" , the logged %Inh turned out to be 0

====

- System: SRPK1
- condition_description: concentration: 1 μM, replicates: in singlicate; n = 1
observation_type: %Inh (%)
Just the number in %, nothing appended.

As a guide, the following entries are already answered.
CC(=O)Nc1n[nH]c2ncc(-c3ccccc3)cc12 [SB-548492]: 25
Oc1ccc2ncnc(Nc3ccc(OCc4ccccc4)cc3)c2c1 [GI262866]: 32
Fc1cccc(COc2ccc(Nc3ncnc4sc(-c5ccc[nH]5)cc34)cc2Cl)c1 [GW707818]: 19
c1ccc(-c2ccc3c(-c4ccnc(Nc5ccc6c(c5)OCCO6)n4)cnn3n2)cc1 [GW818941]: 48
Nc1nc(-c2ccccn2)c(-c2ccnc3ccccc23)s1 [GW548057]: 0
CCn1c(-c2ccncc2)nc2cnccc21 [SB-735216]: 0
Cl.Fc1ccccc1COc1ccc(Nc2ncnc3ccc(-c4nnc(C(F)(F)F)o4)cc23)cc1Cl [GW424170]: 0
O=c1cc(N2CCOCC2)nc2n(Cc3cccc(Cl)c3)ccn12 [GSK2296823]: 16

So for Cl.Cn1ccc(-c2cccc(Nc3ccnc4cc(-c5nccs5)ccc34)c2)n1 [GW525701] , the logged %Inh turned out to be 0

So for "O=C(CCO)NCCn1ccc2ncnc(Nc3ccc(Oc4cccc(C(F)(F)F)c4)c(Cl)c3)c21" , the logged %Inh turned out to be 0

So for COc1ccc(-c2oc3ncnc(N)c3c2-c2ccc(OC)cc2)cc1 [SB-589132] , the logged %Inh turned out to be 30

So for COC(=O)c1cccc(NC(=O)NCCNc2ccnc(Nc3ccc(F)cc3)n2)c1 [GSK1379883] , the logged %Inh turned out to be 17

So for Cc1cccc(-c2nc(Nc3ccc4[nH]nnc4c3)c3ccccc3n2)n1 [GW867587] , the logged %Inh turned out to be 0

====

- System: GSK3B
- condition_description: concentration: 1 μM, replicates: in singlicate; n = 1
Quick reference: %Inh of the listed items.
Just the number in %, nothing appended.

As a guide, the following entries are already answered.
Cc1cc(N2CCC(NS(=O)(=O)c3ccc(F)cc3)CC2)nc(Nc2cccc(C#N)c2)n1.O=C(O)C(F)(F)F [GSK1653537]: 0
COc1cc2c(Nc3cccc(NC(=O)c4ccccc4)c3)ncnc2cc1OCCCN1CCOCC1 [GSK223810]: 0
Nc1nc(-c2ccccn2)c(-c2ccnc3ccccc23)s1 [GW548057]: 5

So for "CN1c2ccc(-c3ccc(C(=O)NCCO)cc3)cc2-c2[nH]ncc2S1(=O)=O" , the logged %Inh turned out to be 32

So for "Fc1ccc(-c2ncn(CCCNCc3ccccc3)c2-c2ccncc2)cc1" , the logged %Inh turned out to be 28

FYI, the data here is from paper PMC5540273.
